Data provenance is ChEMBL document CHEMBL2074537.

biological target: Solute carrier family 15 member 2 (Rattus norvegicus, UniProt Q63424); test: TP_TRANSPORTER: inhibition of Gly-Sar uptake (pH6.0) in SKPT cells
Sequence (Q63424 whole entry): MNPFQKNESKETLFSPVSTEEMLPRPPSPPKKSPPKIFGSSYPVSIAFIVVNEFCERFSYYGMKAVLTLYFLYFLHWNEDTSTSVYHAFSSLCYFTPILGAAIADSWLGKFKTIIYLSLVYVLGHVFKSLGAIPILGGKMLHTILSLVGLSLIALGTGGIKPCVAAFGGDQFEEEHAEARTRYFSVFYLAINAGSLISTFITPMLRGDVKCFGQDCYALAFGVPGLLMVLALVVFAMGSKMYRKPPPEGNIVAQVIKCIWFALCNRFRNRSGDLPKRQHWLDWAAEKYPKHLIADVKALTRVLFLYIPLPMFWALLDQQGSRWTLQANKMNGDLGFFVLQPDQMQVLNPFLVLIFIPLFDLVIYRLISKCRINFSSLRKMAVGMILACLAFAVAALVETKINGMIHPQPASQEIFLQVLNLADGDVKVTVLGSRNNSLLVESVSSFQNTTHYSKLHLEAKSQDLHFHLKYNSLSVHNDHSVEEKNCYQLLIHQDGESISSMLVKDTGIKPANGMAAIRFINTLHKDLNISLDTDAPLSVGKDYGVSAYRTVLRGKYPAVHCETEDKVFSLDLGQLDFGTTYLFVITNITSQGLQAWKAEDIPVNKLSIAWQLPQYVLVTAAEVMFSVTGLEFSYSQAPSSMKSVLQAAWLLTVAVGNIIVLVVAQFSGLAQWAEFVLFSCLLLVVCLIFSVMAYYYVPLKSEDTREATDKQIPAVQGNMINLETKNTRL
Classes based on Ki: low band: < 0.7 mM; middle band: ≥ 0.7 mM and < 9 mM; high band: ≥ 9 mM

Solved cases (10 shown):
{"given-smiles": "CO/N=C(\\C(=O)N[C@@H]1C(=O)N2C(C(=O)[O-])=C(C[n+]3cccc4c3CCC4)CS[C@H]12)c1csc(N)n1", "classification": "high band"}
{"given-smiles": "CO[C@@]1(NC(=O)CSCC#N)C(=O)N2C(C(=O)O)=C(CSc3nnnn3C)CS[C@@H]21", "classification": "middle band"}
{"given-smiles": "CC1(C)S[C@@H]2[C@H](N)C(=O)N2[C@H]1C(=O)O", "classification": "high band"}
{"given-smiles": "CC1(C)S[C@@H]2[C@H](NC(=O)[C@H](N)c3ccc(O)cc3)C(=O)N2[C@H]1C(=O)O", "classification": "low band"}
{"given-smiles": "O=C(Cc1cccs1)N[C@@H]1C(=O)N2C(C(=O)[O-])=C(C[n+]3ccccc3)CS[C@H]12", "classification": "middle band"}
{"given-smiles": "CC1=C(C(=O)O)N2C(=O)[C@@H](NC(=O)[C@H](N)C3=CCC=CC3)[C@H]2SC1", "classification": "low band"}
{"given-smiles": "NC(=O)c1cc[n+](CC2=C(C(=O)O)N3C(=O)[C@@H](NC(=O)[C@@H](c4ccccc4)S(=O)(=O)[O-])[C@H]3SC2)cc1", "classification": "high band"}
{"given-smiles": "Cn1nnnc1SCC1=C(C(=O)O)N2C(=O)[C@@H](NC(=O)[C@H](O)c3ccccc3)[C@H]2SC1", "classification": "middle band"}
{"given-smiles": "CO/N=C(\\C(=O)N[C@@H]1C(=O)N2C(C(=O)O)=C(COC(C)=O)CS[C@H]12)c1csc(N)n1", "classification": "high band"}
{"given-smiles": "C=N[C@@H](C(=O)N[C@@H]1C(=O)N2[C@@H]1SC(C)(C)[C@@H]2C(=O)O)c1ccccc1", "classification": "middle band"}

Enquiry: Please let me know in which category the item CC(C)(O/N=C(\C(=O)N[C@@H]1C(=O)N2C(C(=O)[O-])=C(C[n+]3ccccc3)CS[C@H]12)c1csc(N)n1)C(=O)O belongs.
Return: high band

Enquiry: Class for Cc1onc(-c2c(Cl)cccc2Cl)c1C(=O)N[C@@H]1C(=O)N2[C@@H]1SC(C)(C)[C@@H]2C(=O)O ?
Return: low band

Enquiry: Given CC(=O)OCC1=C(C(=O)O)N2C(=O)[C@@H](NC(=O)Cc3cccs3)[C@H]2SC1 , name the class its Ki places it in.
Return: middle band
